# Test system: T47D
# TEST PROTOCOL: Induction of apoptosis in human T47D cells assessed as caspase-3 activation
# Format: functional, cell-based
The entries below are paired with their reported log10 EC50.
Field: value | Transform: log10 | Quantity: EC50 | Unit: µM

Previously resolved entries follow.
INSERT INTO measurements (compound, observed_result) VALUES
  ('CCC(=O)c1ccc(Nc2c3ccccc3nc3c2c(C)nn3CC)cc1', -0.68),
  ('CCC(=O)c1ccc(Nc2c3ccccc3nc3c2c(C)nn3C)cc1', -1.15),
  ('CCC(O)c1ccc(Nc2c3ccccc3nc3c2c(C)nn3C)cc1 (stereo not given)', -0.85),
  ('COC(=O)c1ccc(Nc2c3ccccc3nc3c2c(C)nn3C)cc1', -0.27),
  ('Cc1nn(C)c2nc3ccccc3c(Nc3ccc(C(=O)C(C)C)cc3)c12', -0.36);

Measured log10 EC50 for this entry COc1ccc(Sc2c3ccccc3nc3c2c(C)nn3C)cc1 on T47D: 0.74

Value sought: log10 EC50, system T47D, item CC(=O)c1ccc(Nc2c3ccccc3nc3c2cnn3C)cc1 . Result: 0.06

Measured log10 EC50 (T47D), entry CC(=O)c1ccc(Nc2c3cccc(C)c3nc3c2c(C)nn3C)cc1 : 0.05

---

# Test system: HCT-116
# TEST PROTOCOL: Induction of apoptosis in human HCT116 cells assessed as caspase-3 activation
# Format: functional, cell-based
Threshold-based label: EC50 under 0.7 µM gives 1 (yes), EC50 not under 0.7 µM gives 0 (no).

// known answers, use as guide
INSERT INTO measurements (structure_smiles, class_assignment) VALUES
  ('CC(=O)c1ccc(Nc2c3ccccc3nc3c2cnn3C)cc1', '0 (no)'),
  ('Cc1nn(C)c2nc3ccccc3c(Nc3ccc(C(=O)O)cc3)c12', '0 (no)'),
  ('CC(=O)c1ccc(Nc2c3cc(C)ccc3nc3c2c(C)nn3C)cc1', '0 (no)'),
  ('COc1cccc(Nc2c3ccccc3nc3c2c(C)nn3C)c1', '0 (no)');

Would you kindly look at the next entry?
API: query returns whether the molecule falls strictly under 0.7 µM in EC50. Query: CC(=O)c1ccc(Nc2c3ccccc3nc3c2c(C)nn3C)cc1
1 (yes)

---

# System: HCT-116
# TEST PROTOCOL: Induction of apoptosis in human HCT116 cells assessed as caspase-3 activation
# Format: functional, cell-based
Param label: returns Met when EC50 < 700 nM, returns Not met otherwise, including exact equality.

Answered examples (5):
INSERT INTO assay_data (structure_smiles, system_tested, class_assignment) VALUES
  ('COc1ccc(Nc2c3ccccc3nc3c2c(C)nn3C)cc1', 'HCT-116', 'Not met'),
  ('CC(=O)c1ccc(Nc2c3cccc(C)c3nc3c2c(C)nn3C)cc1', 'HCT-116', 'Not met'),
  ('CCC(=O)c1ccc(Nc2c3ccccc3nc3c2c(C)nn3CC)cc1', 'HCT-116', 'Met'),
  ('CC(=O)c1cccc(Nc2c3c(nc4ccccc24)CCC3)c1', 'HCT-116', 'Met'),
  ('CCC(=O)c1ccc(Nc2c3ccccc3nc3c2c(C)nn3C)cc1', 'HCT-116', 'Met');

I'd appreciate it if you could check whether COc1ccc(Nc2c3ccccc3nc3[nH]nc(C)c23)cc1 has EC50 smaller than 700 nM.
Not met

These measurements were taken from ChEMBL document CHEMBL1140767.
